The reported numbers originate from paper PMC6681697.

- Tested on: LNCaP xenografts
- test summary: Ex vivo biodistribution and blocking studies in mice bearing LNCaP xenografts
- condition set: 1 h after injection, unblocked
Quick reference: fat uptake of the listed items.
Express your answer in %ID/g, writing the number without its unit.

In the examples that follow, each entry is paired with its recorded fat uptake.
molecule: C[N+](C)(Cc1cn(Cc2ccc(C(=O)NCCCC[C@H](NC(=O)N[C@@H](CCC(=O)O)C(=O)O)C(=O)O)cn2)nn1)C[B-](F)(F)F [^18F-3]
target of assay: LNCaP xenografts
readout unit: %ID/g
fat uptake: 0.35
--
molecule: C[N+](C)(Cc1cn(Cc2ccc(C(=O)NCCCC[C@H](NC(=O)N[C@@H](CCC(=O)O)C(=O)O)C(=O)O)cc2)nn1)C[B-](F)(F)F [^18F-2]
target of assay: LNCaP xenografts
readout unit: %ID/g
fat uptake: 0.73

// moving on: another record for fat uptake
According to the records, this molecule O=C(O)CC[C@H](NC(=O)N[C@@H](CCCCNC(=O)[C@H](Cc1ccc2ccccc2c1)NC(=O)[C@H]1CC[C@H](CNC(=O)Cn2cc(C[n+]3ccc([B-](F)(F)F)cc3)nn2)CC1)C(=O)O)C(=O)O [^18F-6] displays fat uptake of 0.38

====

- Test system: LNCaP xenografts
- test summary: Ex vivo biodistribution and blocking studies in mice bearing LNCaP xenografts
- condition set: 1 h after injection, unblocked
quantity kind: stomach uptake
Be sure to follow the number with its unit.

In the examples that follow, each entry is paired with its recorded stomach uptake.
compound: C[N+](C)(Cc1cn(CC(=O)N[C@@H](CCC(=O)O)C(=O)NCCCC[C@H](NC(=O)[C@H](CCC(=O)O)NC(=O)Cn2cc(C[N+](C)(C)C[B-](F)(F)F)nn2)C(=O)NC[C@H]2CC[C@H](C(=O)N[C@@H](Cc3ccc4ccccc4c3)C(=O)NCCCC[C@H](NC(=O)N[C@@H](CCC(=O)O)C(=O)O)C(=O)O)CC2)nn1)C[B-](F)(F)F [^18F-8]
stomach uptake: 0.11 ± 0.03 %ID/g

compound: O=C(O)CCC(NC(=O)NC(CCCCNC(=O)c1ccc([18F])nc1)C(=O)O)C(=O)O (centres unmarked) [^18F-DCFPyL, reference compound]
stomach uptake: 0.12 ± 0.03 %ID/g

compound: C[N+](C)(Cc1ccc(C(=O)NCCCC[C@H](NC(=O)N[C@@H](CCC(=O)O)C(=O)O)C(=O)O)cc1)C[B-](F)(F)F [^18F-1]
stomach uptake: 0.12 ± 0.05 %ID/g

compound: C[N+](C)(Cc1cn(Cc2ccc(C(=O)NCCCC[C@H](NC(=O)N[C@@H](CCC(=O)O)C(=O)O)C(=O)O)cc2)nn1)C[B-](F)(F)F [^18F-2]
stomach uptake: 0.10 ± 0.03 %ID/g

// moving on: another record for stomach uptake
According to the records, this compound O=C(O)CC[C@H](NC(=O)N[C@@H](CCCCNC(=O)c1ccc(Cn2cc(C[n+]3ccc([B-](F)(F)F)cc3)nn2)nc1)C(=O)O)C(=O)O [^18F-4] displays stomach uptake of 0.15 ± 0.03 %ID/g

====

Quick reference: intestine uptake of the listed items.
- System: LNCaP xenografts
- test summary: Ex vivo biodistribution and blocking studies in mice bearing LNCaP xenografts
- condition set: 1 h blocked (coinjection of DCFPyL 0.5 mg)
Express your answer in %ID/g, writing the number without its unit.

compound: C[N+](C)(Cc1cn(CC(=O)N[C@@H](CCC(=O)O)C(=O)NCCCC[C@H](NC(=O)[C@H](CCC(=O)O)NC(=O)Cn2cc(C[N+](C)(C)C[B-](F)(F)F)nn2)C(=O)NC[C@H]2CC[C@H](C(=O)N[C@@H](Cc3ccc4ccccc4c3)C(=O)NCCCC[C@H](NC(=O)N[C@@H](CCC(=O)O)C(=O)O)C(=O)O)CC2)nn1)C[B-](F)(F)F [^18F-8]
readout unit: %ID/g
intestine uptake: 0.26

// moving on: another record for intestine uptake
According to the records, this compound O=C(O)CC[C@H](NC(=O)N[C@@H](CCCCNC(=O)[C@H](Cc1ccc2ccccc2c1)NC(=O)[C@H]1CC[C@H](CNC(=O)Cn2cc(C[n+]3ccc([B-](F)(F)F)cc3)nn2)CC1)C(=O)O)C(=O)O [^18F-6] displays intestine uptake of 24.50

====

- Tested on: LNCaP xenografts
- test summary: Ex vivo biodistribution and blocking studies in mice bearing LNCaP xenografts
- condition set: 1 h after injection, unblocked
quantity kind: intestine uptake (%ID/g)
Express your answer in %ID/g, writing the number without its unit.

In the examples that follow, each entry is paired with its recorded intestine uptake.
compound: C[N+](C)(Cc1cn(Cc2ccc(C(=O)NCCCC[C@H](NC(=O)N[C@@H](CCC(=O)O)C(=O)O)C(=O)O)cc2)nn1)C[B-](F)(F)F [^18F-2]
target of assay: LNCaP xenografts
readout unit: %ID/g
intestine uptake: 0.33
//
compound: O=C(O)CCC(NC(=O)NC(CCCCNC(=O)c1ccc([18F])nc1)C(=O)O)C(=O)O (stereo not drawn) [^18F-DCFPyL, reference compound]
target of assay: LNCaP xenografts
readout unit: %ID/g
intestine uptake: 0.33
//
compound: C[N+](C)(Cc1cn(Cc2ccc(C(=O)NCCCC[C@H](NC(=O)N[C@@H](CCC(=O)O)C(=O)O)C(=O)O)cn2)nn1)C[B-](F)(F)F [^18F-3]
target of assay: LNCaP xenografts
readout unit: %ID/g
intestine uptake: 0.28
//
compound: O=C(O)CC[C@H](NC(=O)N[C@@H](CCCCNC(=O)[C@H](Cc1ccc2ccccc2c1)NC(=O)[C@H]1CC[C@H](CNC(=O)Cn2cc(C[n+]3ccc([B-](F)(F)F)cc3)nn2)CC1)C(=O)O)C(=O)O [^18F-6]
target of assay: LNCaP xenografts
readout unit: %ID/g
intestine uptake: 23.05
//
compound: C[N+](C)(Cc1cn(CC(=O)NC[C@H]2CC[C@H](C(=O)N[C@@H](Cc3ccc4ccccc4c3)C(=O)NCCCC[C@H](NC(=O)N[C@@H](CCC(=O)O)C(=O)O)C(=O)O)CC2)nn1)C[B-](F)(F)F [^18F-5]
target of assay: LNCaP xenografts
readout unit: %ID/g
intestine uptake: 12.96
//
compound: O=C(O)CC[C@H](NC(=O)N[C@@H](CCCCNC(=O)c1ccc(Cn2cc(C[n+]3ccc([B-](F)(F)F)cc3)nn2)nc1)C(=O)O)C(=O)O [^18F-4]
target of assay: LNCaP xenografts
readout unit: %ID/g
intestine uptake: 0.48
//
compound: C[N+](C)(Cc1cn(CC(=O)NCCOCCOCCC(=O)N[C@@H](Cc2ccc3ccccc3c2)C(=O)NCCCC[C@H](NC(=O)N[C@@H](CCC(=O)O)C(=O)O)C(=O)O)nn1)C[B-](F)(F)F [^18F-7]
target of assay: LNCaP xenografts
readout unit: %ID/g
intestine uptake: 22.24
//
compound: C[N+](C)(Cc1ccc(C(=O)NCCCC[C@H](NC(=O)N[C@@H](CCC(=O)O)C(=O)O)C(=O)O)cc1)C[B-](F)(F)F [^18F-1]
target of assay: LNCaP xenografts
readout unit: %ID/g
intestine uptake: 0.54

// moving on: another record for intestine uptake
According to the records, this compound C[N+](C)(Cc1cn(CC(=O)N[C@@H](CCC(=O)O)C(=O)NCCCC[C@H](NC(=O)[C@H](CCC(=O)O)NC(=O)Cn2cc(C[N+](C)(C)C[B-](F)(F)F)nn2)C(=O)NC[C@H]2CC[C@H](C(=O)N[C@@H](Cc3ccc4ccccc4c3)C(=O)NCCCC[C@H](NC(=O)N[C@@H](CCC(=O)O)C(=O)O)C(=O)O)CC2)nn1)C[B-](F)(F)F [^18F-8] displays intestine uptake of 0.32

====

Quick reference: spleen uptake of the listed items.
- Tested on: LNCaP xenografts
- test summary: Ex vivo biodistribution and blocking studies in mice bearing LNCaP xenografts
- condition set: 1 h after injection, unblocked
- Description: Imaging and biodistribution experiments were performed using NODSCID IL2RγKO male mice. […] For biodistribution and blocking studies, the mice were injected with 1–3 MBq of radiotracer. […] Blood was withdrawn by cardiac puncture, and the organs and tissues of interest were collected, weighed, and counted using an automatic γ-counter (PerkinElmer). Uptake values were expressed as the percentage of the injected dose per gram of tissue (%ID/g). […]
Express your answer in %ID/g, writing the number without its unit.

Log: LNCaP xenografts, molecule C[N+](C)(Cc1ccc(C(=O)NCCCC[C@H](NC(=O)N[C@@H](CCC(=O)O)C(=O)O)C(=O)O)cc1)C[B-](F)(F)F [^18F-1] , spleen uptake = 2.67

====

- System: LNCaP xenografts
- test summary: Ex vivo biodistribution and blocking studies in mice bearing LNCaP xenografts
- condition set: 1 h after injection, unblocked
Quick reference: T/K (tumor-to-kidney ratio) of the listed items.

In the examples that follow, each entry is paired with its recorded T/K (tumor-to-kidney ratio).
molecule: C[N+](C)(Cc1cn(Cc2ccc(C(=O)NCCCC[C@H](NC(=O)N[C@@H](CCC(=O)O)C(=O)O)C(=O)O)cc2)nn1)C[B-](F)(F)F [^18F-2]
endpoint result: 0.12 ± 0.04

molecule: C[N+](C)(Cc1ccc(C(=O)NCCCC[C@H](NC(=O)N[C@@H](CCC(=O)O)C(=O)O)C(=O)O)cc1)C[B-](F)(F)F [^18F-1]
endpoint result: 0.07 ± 0.06

molecule: C[N+](C)(Cc1cn(CC(=O)N[C@@H](CCC(=O)O)C(=O)NCCCC[C@H](NC(=O)[C@H](CCC(=O)O)NC(=O)Cn2cc(C[N+](C)(C)C[B-](F)(F)F)nn2)C(=O)NC[C@H]2CC[C@H](C(=O)N[C@@H](Cc3ccc4ccccc4c3)C(=O)NCCCC[C@H](NC(=O)N[C@@H](CCC(=O)O)C(=O)O)C(=O)O)CC2)nn1)C[B-](F)(F)F [^18F-8]
endpoint result: 0.14 ± 0.07

molecule: O=C(O)CC[C@H](NC(=O)N[C@@H](CCCCNC(=O)c1ccc(Cn2cc(C[n+]3ccc([B-](F)(F)F)cc3)nn2)nc1)C(=O)O)C(=O)O [^18F-4]
endpoint result: 0.04 ± 0.02

molecule: C[N+](C)(Cc1cn(CC(=O)NC[C@H]2CC[C@H](C(=O)N[C@@H](Cc3ccc4ccccc4c3)C(=O)NCCCC[C@H](NC(=O)N[C@@H](CCC(=O)O)C(=O)O)C(=O)O)CC2)nn1)C[B-](F)(F)F [^18F-5]
endpoint result: 0.21 ± 0.08

According to the records, this molecule O=C(O)CC[C@H](NC(=O)N[C@@H](CCCCNC(=O)[C@H](Cc1ccc2ccccc2c1)NC(=O)[C@H]1CC[C@H](CNC(=O)Cn2cc(C[n+]3ccc([B-](F)(F)F)cc3)nn2)CC1)C(=O)O)C(=O)O [^18F-6] displays T/K (tumor-to-kidney ratio) of 0.14 ± 0.02

According to the records, this molecule C[N+](C)(Cc1cn(CC(=O)NCCOCCOCCC(=O)N[C@@H](Cc2ccc3ccccc3c2)C(=O)NCCCC[C@H](NC(=O)N[C@@H](CCC(=O)O)C(=O)O)C(=O)O)nn1)C[B-](F)(F)F [^18F-7] displays T/K (tumor-to-kidney ratio) of 0.28 ± 0.22

According to the records, this molecule C[N+](C)(Cc1cn(Cc2ccc(C(=O)NCCCC[C@H](NC(=O)N[C@@H](CCC(=O)O)C(=O)O)C(=O)O)cn2)nn1)C[B-](F)(F)F [^18F-3] displays T/K (tumor-to-kidney ratio) of 0.11 ± 0.08
